Assay: Mouse pharmacokinetic assay
Type: in vivo, Balb/c mice
Details: in vivo, po; mouse plasma, i.g. (10 mg/kg)
observed property: AUC(0-t) (ng·h/mL)
Only the number, expressed in ng·h/mL, is required.

Give a short answer stating reported AUC(0-t) for Cc1ncnc(C(=O)N2CC3(CCN(c4c5n(c6nc(C7=CCOCC7)nn6c4=O)C(C(=O)Nc4ccc(C(F)(F)F)cc4Cl)CCC5)CC3)C2)c1O (single isomer, unassigned) [Compound 14-B] .
24200

----------
Experiment: Mouse pharmacokinetic assay
Format: in vivo, Balb/c mice
Conditions: male, Balb/c, po; mouse plasma, i.g. (10 mg/kg); read-out: F (%)
observed property: bioavailability (%)
Only the number, expressed in %, is required.

Give a short answer stating reported bioavailability for CCc1c(N2CCN(C(=O)c3ncnc(C)c3O)CC2)c(=O)n2nc(C3=CCOCC3)nc2n1CC(=O)Nc1ccc(C(F)(F)F)cc1Cl [HRO761, reference compound] .
74.1
